# Test system: MILI (PIWIL2) piRISC loaded with L1MC piRNA (26 nt);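 note: 1 nM active piRISC with 0.1 nM target library at 33 °C single turnover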
# PROTOCOL: pre-steady-state target cleavage rate (min^-1); guide: L1MC piRNA 5'p-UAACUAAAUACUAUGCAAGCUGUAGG; higher = faster piRNA-guided slicing of the target
# CONDITION: auxiliary factor: none (no GTSF1)
// pre-steady-state target cleavage rate lookup, one value per entry
Lab note: record just the number, no unit beside it.

Some sequences with known pre-steady-state target cleavage rate results, for comparison:
UCCUGGAUGUCGAUGCUUAGUAUUUAGUUA | 0.00602
UCCUCCUUCAGCUUGCAUAGUAUAUAGUUA | 0.00364
UCCUCUACAGCUUGCAUAGUAUUUAGUUA | 0.00953
UCCUGGUACAGCUUGCAUAGGUAUUUAGUUA | 0.00574
UCCUGGAUCGAGCUUGCAUAGUAUUUAGUUA | 0.0122

Ask | Lookup: pre-steady-state target cleavage rate / MILI (PIWIL2) piRISC loaded with L1MC piRNA (26 nt) / `UCCUGGAACAGCUCGCAUAGUAUUUAGUUA`;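 note: 1 nM active piRISC with 0.1 nM target library at 33 °C single turnover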
Reply | 0.00773

* * *

Here, each record is paired with measured pre-steady-state target cleavage rate data.
# Test system: MILI (PIWIL2) piRISC loaded with L1MC piRNA (26 nt);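 note: 1 nM active piRISC with 0.1 nM target library at 33 °C single turnover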
# PROTOCOL: pre-steady-state target cleavage rate (min^-1); guide: L1MC piRNA 5'p-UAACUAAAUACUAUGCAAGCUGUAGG; higher = faster piRNA-guided slicing of the target
# CONDITION: auxiliary factor: none (no GTSF1)
Answer using only a numeral; do not append any unit.

UCCUGCACAGCUUGCAUAGUAUUUAGUUA | 0.00995

Proceeding to the next sequence to report its pre-steady-state target cleavage rate.
Ask | What measured pre-steady-state target cleavage rate goes with UCCUGGAUGUCGAAGCAUAGUAUUUAGUUA [g2:g16:cont:t1A] ?
Reply | 0.00487

* * *

# System: MILI (PIWIL2) piRISC loaded with piRNA #1 (26 nt);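 note: 1 nM active piRISC with 0.1 nM target library at 33 °C single turnover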
# PROTOCOL: pre-steady-state target cleavage rate (min^-1); guide: piRNA #1 5'p-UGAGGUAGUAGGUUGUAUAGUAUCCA; higher = faster piRNA-guided slicing of the target
# CONDITION: auxiliary factor: 500 nM mouse GTSF1
Entries and their pre-steady-state target cleavage rate values follow.
I only need the number, thanks.

The examples below pair each entry with its known result.
GGAGACCUUAGUAUACAACCUACAACCUCA | 0.0865
GGAGACGAUACUAUAGAACCAACUACCUCA | 0.00326
GGAGAGGAAACUAUACAAGCUACUACCUCA | 0.179

Ask | // pre-steady-state target cleavage rate lookup, key: `GGAGACGAUACUAUACAACCUACUACCUGCA`
Reply | 0.203

Ask | Consider next the sequence `GGAGACCUAUCUAUACAACCUACUACCUACA` in the same way.
Reply | 0.0858

Ask | Now consider `GGAGACCUAUGAUAACAACCUACAUACCUCA` and answer again.
Reply | 0.00403

Ask | Now this one: `GGAGUGGAUACAAUACAUCCUACUACCUCA`
Reply | 0.256

Ask | Please give the result for `GGAGACCUAUGAUAUGUAUCCUACUACCUCA` too.
Reply | 0.0082

Ask | Continue with `GGAGUGGAUACAAUACAACCUACUUCCUCA`
Reply | 0.00975

Ask | Same question for `GGAGACCUAUCUAUACAAGGUACUACCUCA` please.
Reply | 0.0563

Ask | Now consider `GGAGACCAUACUAUACAACCUAUACCUCA` .
Reply | 0.016

* * *

# Test system: EfPiwi piRISC loaded with L1MC piRNA (26 nt)
# PROTOCOL: pre-steady-state target cleavage rate (min^-1); auxiliary factor: 500 nM Ephydatia muelleri Gtsf1; guide: L1MC piRNA 5'p-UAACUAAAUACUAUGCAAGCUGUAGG; higher = faster piRNA-guided slicing of the target
Please use 1.0 whenever pre-steady-state target cleavage rate is not below 0.007, and 0.0 whenever it is.

Some entries whose results are on file:
UCCUGCUACAGGUUGCAUACUAUUUAGUUA | 0.0
UCCUCCUACAGCUUGCAGAGUAUUUAGUUA | 1.0
UCCUGGUACAGCUUGCAUAGUAUUUAGUUUA | 1.0

Ask | Please check the record `UCCUGGUACAGCUGCAUAGUAUUUAGUUA` and state if its pre-steady-state target cleavage rate is at or above 0.007.
Reply | 1.0

Ask | Field entry: `UCCUCCAUCAGCUUGCAUAGUAUUUAGAAA`
Reply | 0.0

Ask | What do we get for `UCCUGGAUCAGUUUGCAUAGUAUUUAGUUA` ?
Reply | 1.0

* * *

# Tested on: MILI (PIWIL2) piRISC loaded with L1MC piRNA (26 nt);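 note: 1 nM active piRISC with 0.1 nM target library at 33 °C single turnover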
# PROTOCOL: pre-steady-state target cleavage rate (min^-1); guide: L1MC piRNA 5'p-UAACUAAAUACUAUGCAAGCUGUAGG; higher = faster piRNA-guided slicing of the target
# CONDITION: auxiliary factor: 500 nM mouse GTSF1
Definition: the class of an entry is the range in low value (below 0.05), medium value (0.05 to below 0.1), high value (0.1 or more) that contains its pre-steady-state target cleavage rate.

Here are 5 sequences together with their reported answers.
UCCUGGAUGAGCUAGCAAAGUAUUUAGUUA | low value
UCCUGGAUCAGGAAGCAUAGUAUUUAGAAA | low value
UCCUGGAUGUCGUAGCAUAGUAUUUAGUAA | medium value
UCCUGGAUCAGCUAGCAUACUAUUUAGUUA | medium value
UCCUGGAACUCCUUGCAUAGUAUUUAGUUA | high value

Next:
Ask | Which pre-steady-state target cleavage rate category applies to `UCCUGGAUGUGGUUGCAUUGUAUUUAGUUA` here?
Reply | low value

* * *

# System: EfPiwi piRISC loaded with piRNA #1 (26 nt)
# PROTOCOL: pre-steady-state target cleavage rate (min^-1); auxiliary factor: 500 nM Ephydatia muelleri Gtsf1; guide: piRNA #1 5'p-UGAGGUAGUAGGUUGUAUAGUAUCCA; MIWI and MILI are mouse PIWI proteins and EfPiwi is from a freshwater sponge; tags in brackets are library labels; higher = faster piRNA-guided slicing of the target
ENDPOINT NAME: pre-steady-state target cleavage rate
Answer with the value's number alone.

The cases that follow already have their pre-steady-state target cleavage rate on record.
GGAGAGGUUACUAUACAACCAACUACCUCA | 0.00401
GGAGACGAUACGUAUACAACCUACUACCUCA | 0.00952
GGAGUGGGAUACUAUACAACCUACUACCUCA | 0.143
GGAGACGAUACUAUACAAGCAACUACCUCA | 0.0046
GGAGAGGAUACUAUACAACGUACUACCUCA | 0.0053
GGAGUGGAAACUAUACAACCUACUACGUCA | 0.00326

Ask | Which measured pre-steady-state target cleavage rate value corresponds to `GGAGAGGUUACUAUACUACCUACUACCUCA` ?
Reply | 0.00488

Ask | Record: `GGAGUGGAUACUAUACAACCAACUACCACA`
Reply | 0.00391

Ask | Also need `GGAGUGGAUACUAAACAACCUACUACCUGA` , thanks.
Reply | 0.00228

Ask | Here is the next sequence: `GGAGUCGAUACUAUACAACCUACUUCCUCA`
Reply | 0.00362

Ask | One more sequence: `GGAGACGAUACUAUACAACCUACAACCUCA`
Reply | 0.00407

Ask | Query `GGAGAGGAUACUAAACAACCUACAACCUCA` next
Reply | 0.00196

Ask | Check `GGAGACGUUACUAUACAACCUUCUACCUCA` too.
Reply | 0.00871

Ask | Another sequence: GGAGACCUUACUAUACAACCUACUACCUCA [g2:g22:cont:t1A]
Reply | 0.0238

Ask | Follow-up item: `GGAGACGAUACUAUACAACCUACCUACCUCA`
Reply | 0.00485

Ask | Try this sequence next: `GGAGAGGAUACUAUACAAGCUACAACCUCA`
Reply | 0.00258

Ask | Same thing, different sequence: `GGAGACGAUACUAUUCAUCCUACUACCUCA`
Reply | 0.00763

Ask | Let us now turn to `GGAGACCUAAGUUUACAACCUACUACCUCA`
Reply | 0.00645

Ask | # repeat for `GGAGACCAUACUAUACAACCUACAUACCUCA`
Reply | 0.00306

Ask | Continue with `GGAGUGGAUACUAUACAACCUACUACACUCA`
Reply | 0.00464

Ask | Also, `GGAGACGAUACUAUACAACCUACUACAUCA` please.
Reply | 0.0059

Ask | Now the sequence `GGAGUGGACUACUAUACAACCUACUACCUCA`
Reply | 0.0107

Ask | Proceed to `GGAGACCAUACUAUACAACCUACUACCCCA`
Reply | 0.00577

Ask | Try the sequence `GGAGAGGAUACUAUAGCAACCUACUACCUCA`
Reply | 0.0429

Ask | Try this sequence too: `GGAGACCAUACUAUACAAUCUACUACCUCA`
Reply | 0.00847
